Test system: NCI-H522
Test: panel of 60 human tumor cell lines, growth inhibition (Non-Small Cell Lung Cancer)
Settings: NCI-H522; Log10 Concentration −8.0
endpoint: Percent Growth

Worked cases, answers included:
C=C1C(=O)O[C@H]2[C@H]1CC/C(COC(=O)NCCO)=C\CC[C@@]1(C)O[C@@H]21 [JVM 2-50]: 98%
C=C1C(=O)O[C@H]2[C@H]1CC/C(COC(=O)N1CCN(C)CC1)=C\CC[C@@]1(C)O[C@@H]21 [JVM 2-44]: 89%
C=C1C(=O)O[C@H]2[C@H]1CC/C(COC(=O)NCCN1CCCCC1)=C\CC[C@@]1(C)O[C@@H]21 [JVM 2-13]: 99%
C=C1C(=O)O[C@H]2[C@H]1CC/C(COC(=O)N1CCC(F)(F)CC1)=C\CC[C@@]1(C)O[C@@H]21 [JVM 2-66]: 91%
C=C1C(=O)O[C@H]2[C@H]1CC/C(COC(=O)CCC(=O)NCc1ccc(Cl)nc1)=C\CC[C@@]1(C)O[C@@H]21 [JVM 96]: 101%

# evaluate next
# get_value(readout= Percent Growth, system= NCI-H522) for C=C1C(=O)O[C@H]2[C@H]1CC/C(COC(=O)NC)=C\CC[C@@]1(C)O[C@@H]21 [JVM 2-57]
89%

----------
Exercise: for every item that follows, state its recorded IC (TGI).
System: SF-268
Experiment: panel of 60 human tumor cell lines, growth inhibition (CNS Cancer)
Conditions: Homo sapiens, SF-268, read-out: TGI
Answers are plain numbers, in µM.

C=C1C(=O)O[C@H]2[C@H]1CC/C(COC(=O)CCC(=O)NCc1ccc(Cl)nc1)=C\CC[C@@]1(C)O[C@@H]21: 26.7

Could you report IC (TGI) for every entry in the following list?
1. C=C1C(=O)O[C@H]2[C@H]1CC/C(COC(=O)NCCCCCCO)=C\CC[C@@]1(C)O[C@@H]21
2. C=C1C(=O)O[C@H]2[C@H]1CC/C(COC(=O)OCCN(C)C)=C\CC[C@@]1(C)O[C@@H]21
3. C=C1C(=O)O[C@H]2[C@H]1CC/C(COC(=O)OC)=C\CC[C@@]1(C)O[C@@H]21

26
28.5
23.6

----------
System: NCI/ADR-RES
Experiment: panel of 60 human tumor cell lines, growth inhibition (Ovarian Cancer)
Details: Log10 Concentration −6.0
What Percent Growth was measured for each of the following?
Give bare numbers, in %.

C=C1C(=O)O[C@H]2[C@H]1CC/C(COC(=O)NCCO)=C\CC[C@@]1(C)O[C@@H]21: 106
C=C1C(=O)O[C@H]2[C@H]1CC/C(COC(=O)CCC(=O)NCc1ccc(Cl)nc1)=C\CC[C@@]1(C)O[C@@H]21: 107
C=C1C(=O)O[C@H]2[C@H]1CC/C(COC(=O)N1CCN(C)CC1)=C\CC[C@@]1(C)O[C@@H]21: 100

Next, consider the following molecule.
Observed Percent Growth on NCI/ADR-RES for C=C1C(=O)O[C@H]2[C@H]1CC/C(COC(=O)NC)=C\CC[C@@]1(C)O[C@@H]21 , please.
99

----------
Tested on: NCI-H322M
Assay: panel of 60 human tumor cell lines, growth inhibition (Non-Small Cell Lung Cancer)
Conditions: Log10 Concentration −7.0
endpoint: Percent Growth (%)
One number for each entry, in %.

Examples from the recorded data:
C=C1C(=O)O[C@H]2[C@H]1CC/C(COC(=O)CCC(=O)NCc1ccc(Cl)nc1)=C\CC[C@@]1(C)O[C@@H]21: 95
C=C1C(=O)O[C@H]2[C@H]1CC/C(COC(=O)N1CCN(C)CC1)=C\CC[C@@]1(C)O[C@@H]21: 91
C=C1C(=O)O[C@H]2[C@H]1CC/C(COC(=O)NCCc1ccccn1)=C\CC[C@@]1(C)O[C@@H]21: 103

Could you report Percent Growth for every entry in the following list?
1. C=C1C(=O)O[C@H]2[C@H]1CC/C(COC(=O)CCC(=O)N1CCC(C)CC1)=C\CC[C@@]1(C)O[C@@H]21
2. C=C1C(=O)O[C@H]2[C@H]1CC/C(COC(=O)NCCO)=C\CC[C@@]1(C)O[C@@H]21
3. C=C1C(=O)O[C@H]2[C@H]1CC/C(COC(=O)NC)=C\CC[C@@]1(C)O[C@@H]21

1. 108
2. 109
3. 94

----------
Consider the following compounds; for each one, report its CC50.
Tested on: MDA-MB-231/ATCC
Answers are plain numbers, in µM.

Worked examples follow.
C=C1C(=O)O[C@H]2[C@H]1CC/C(COC(=O)N1CCC(F)(F)CC1)=C\CC[C@@]1(C)O[C@@H]21: 30.7
C=C1C(=O)O[C@H]2[C@H]1CC/C(COC(=O)CCC(=O)N1CCC(C)CC1)=C\CC[C@@]1(C)O[C@@H]21: 52.8
C=C1C(=O)O[C@H]2[C@H]1CC/C(COC(=O)NCCN1CCCCC1)=C\CC[C@@]1(C)O[C@@H]21: 56.5
C=C1C(=O)O[C@H]2[C@H]1CC/C(COC(=O)NCCO)=C\CC[C@@]1(C)O[C@@H]21: 75.5
C=C1C(=O)O[C@H]2[C@H]1CC/C(COC(=O)N1CCN(C)CC1)=C\CC[C@@]1(C)O[C@@H]21: 67

Now take the following compound into account.
I am curious: what CC50 value has been reported for C=C1C(=O)O[C@H]2[C@H]1CC/C(COC(=O)NC)=C\CC[C@@]1(C)O[C@@H]21 ?
56.2

----------
Test system: CCRF-CEM
Assay: panel of 60 human tumor cell lines, growth inhibition (Leukemia)
Conditions: Homo sapiens, read-out: TGI
Exercise: state measured IC (TGI) for each of the compounds provided.
Numbers only, in µM.

Examples with their reported IC (TGI) follow.
C=C1C(=O)O[C@H]2[C@H]1CC/C(COC(=O)NCCCCCCO)=C\CC[C@@]1(C)O[C@@H]21: 10.7
C=C1C(=O)O[C@H]2[C@H]1CC/C(COC(=S)n1ccnc1)=C\CC[C@@]1(C)O[C@@H]21: 16.6
C=C1C(=O)O[C@H]2[C@H]1CC/C(COC(=O)OC)=C\CC[C@@]1(C)O[C@@H]21: 6.04

Quick one: IC (TGI) for C=C1C(=O)O[C@H]2[C@H]1CC/C(COC(=O)NCCN1CCOCC1)=C\CC[C@@]1(C)O[C@@H]21 ?
11.6

----------
System: OVCAR-3
Experiment: panel of 60 human tumor cell lines, growth inhibition (Ovarian Cancer)
Settings: read-out: LC50; OVCAR-3
endpoint: CC50 (µM)
Answers are plain numbers, in µM.

Form field: reported CC50 of C=C1C(=O)O[C@H]2[C@H]1CC/C(COC(=O)NCCN1CCCCC1)=C\CC[C@@]1(C)O[C@@H]21
30.4

----------
Test system: AML 052308 cells
endpoint: cytotoxicity compared to MMB

Reference set (4 entries):
C=C1C(=O)O[C@H]2[C@H]1CC/C(COC(=O)Nc1n[nH]c(SC)n1)=C\CC[C@@]1(C)O[C@@H]21: more potent than MMB
C=C1C(=O)O[C@H]2[C@H]1CC/C(COC(=O)NCCN1CCOCC1)=C\CC[C@@]1(C)O[C@@H]21: less active than MMB
C=C1C(=O)O[C@H]2[C@H]1CC/C(COC(=O)NCCCn1ccnc1)=C\CC[C@@]1(C)O[C@@H]21: less active than MMB
C=C1C(=O)O[C@H]2[C@H]1CC/C(COC(=S)n1ccnc1)=C\CC[C@@]1(C)O[C@@H]21: more potent than MMB

API: the following record is the query input.
For the compound shown here, C=C1C(=O)O[C@H]2[C@H]1CC/C(COC(=O)OCCCN1CCCCC1)=C\CC[C@@]1(C)O[C@@H]21 , give the reported cytotoxicity compared to MMB.
more potent than MMB

----------
Test system: MDA-MB-468
Note to self: use t only for CC50 readings below 30 µM; a reading exactly at 30 µM still gets f.

Answered examples (4):
C=C1C(=O)O[C@H]2[C@H]1CC/C(COC(=O)N1CCC(F)(F)CC1)=C\CC[C@@]1(C)O[C@@H]21 [JVM 2-66]: t
C=C1C(=O)O[C@H]2[C@H]1CC/C(COC(=O)N1CCN(C)CC1)=C\CC[C@@]1(C)O[C@@H]21 [JVM 2-44]: f
C=C1C(=O)O[C@H]2[C@H]1CC/C(COC(=O)NC)=C\CC[C@@]1(C)O[C@@H]21 [JVM 2-57]: f
C=C1C(=O)O[C@H]2[C@H]1CC/C(COC(=O)NCCO)=C\CC[C@@]1(C)O[C@@H]21 [JVM 2-50]: f

Now look at this entry.
CC50 under 30 µM? Item: C=C1C(=O)O[C@H]2[C@H]1CC/C(COC(=O)NCCN1CCCCC1)=C\CC[C@@]1(C)O[C@@H]21 [JVM 2-13]
t

----------
Measured CC50 on NCI-H460 follows.
Give bare numbers, in µM.

C=C1C(=O)O[C@H]2[C@H]1CC/C(COC(=O)NC)=C\CC[C@@]1(C)O[C@@H]21: 78

Look up CC50 for the entries below, preserving their order.
1. C=C1C(=O)O[C@H]2[C@H]1CC/C(COC(=O)CCC(=O)N1CCC(C)CC1)=C\CC[C@@]1(C)O[C@@H]21
2. C=C1C(=O)O[C@H]2[C@H]1CC/C(COC(=O)N1CCC(F)(F)CC1)=C\CC[C@@]1(C)O[C@@H]21
3. C=C1C(=O)O[C@H]2[C@H]1CC/C(COC(=O)NCCN1CCCCC1)=C\CC[C@@]1(C)O[C@@H]21

1. 89.4
2. 72.6
3. 78.1

Measured values drawn from patent US9469650B2 for this set.
